system: Mycobacterium tuberculosis; test: Antitubercular activity against Multidrug-resistant Mycobacterium tuberculosis H37Rv assessed as reduction in microbial growth by broth dilution method; format: functional
Experimental endpoint: MIC (µg/mL)
Number in µg/mL, nothing else.

response.value for `CC[C@@H](CO)NCCN[C@@H](CC)CO` (field: MIC) = 12.5

Given item `Cc1ccc(C)n1-c1ccc(C(=O)n2[nH]c(=O)c3ccccc3c2=O)cc1` , the value recorded as its MIC is 0.4

The compound listed as `NNC(=O)c1ccncc1` has a reported MIC of 12.5

// sample CCOc1cc(C2OC(c3ccc(-n4cccc4)cc3)=NN2C(C)=O)ccc1O (stereo not given) , its MIC was 0.2

For reference, reported MIC for `CO[C@H]1/C=C/O[C@@]2(C)Oc3c(C)c(O)c4c(O)c(c(/C=N/N5CCN(C)CC5)c(O)c4c3C2=O)NC(=O)/C(C)=C\C=C\[C@H](C)[C@H](O)[C@@H](C)[C@@H](O)[C@@H](C)[C@H](OC(C)=O)[C@@H]1C` stands at 25
